Numbers sourced from patent US20240116985A1.

methodSummary: CHI Log D procedure
Type: physicochemical
conditionContext: pH 7.4
measurementName: CHI Log D
Quick one: just the number, no unit, thanks!

Take a look at these entries with their results.
CC(=O)N1CCC[C@]12CC=CCCCC1(CCCC=CCCCCCC[C@@](C)(C(=O)N[C@@H](Cc3ccccc3)C(=O)N[C@@H](Cc3c[nH]c4ccccc34)C(=O)N[C@@H](CCC(N)=O)C(N)=O)NC(=O)[C@H](C(C)C)NC(=O)[C@H](Cc3ccccc3)NC(=O)[C@H](C)NC(=O)[C@H](C)NC(=O)[C@H](CCC(N)=O)NC(=O)[C@H](CC(=O)O)NC1=O)NC(=O)[C@H](C)NC(=O)[C@H](CC(=O)O)NC2=O (some centres unmarked) [I-127]; 2.245
CC[C@H](C)[C@@H]1NC(=O)[C@H](CC(=O)O)NC(=O)[C@]2(CC=CCCCC3(CCCC=CCCCCCC[C@@](C)(C(=O)N[C@@H](Cc4ccccc4)C(=O)N[C@@H](Cc4csc5ccccc45)C(=O)N[C@@H](CCC(N)=O)C(N)=O)NC(=O)[C@H](CCC(N)=O)NC(=O)[C@H](Cc4ccccc4)NC(=O)[C@H](C)NC(=O)[C@H](C)NC(=O)[C@H](CCC(=O)O)NC(=O)[C@H](CC(=O)O)NC3=O)NC1=O)CCCN2C(=O)Cc1ccccc1 (some centres unmarked) [I-600]; 2.694

Entry CC(=O)N1CCC[C@]12CC=CCCCC1(CCCC=CCCCCCC[C@@](C)(C(=O)N[C@@H](CCc3ccccc3)C(=O)N[C@@H](Cc3csc4ccccc34)C(=O)N[C@@H](CCC(N)=O)C(N)=O)NC(=O)[C@H](CC(N)=O)NC(=O)[C@H](Cc3ccccc3)NC(=O)[C@H](C)NC(=O)[C@H](C)NC(=O)[C@H](CCC(=O)O)NC(=O)[C@H](CC(=O)O)NC1=O)NC(=O)[C@H](C)NC(=O)[C@H](CC(=O)O)NC2=O (some centres unmarked) [I-442] ; CHI Log D = 2.098

Record CC(=O)N1CCC[C@]12CC=CCCCC1(CCCC=CCCCCOC(=O)N3CC[C@@](C(=O)N[C@@H](Cc4ccsc4)C(=O)N[C@@H](Cc4csc5ccccc45)C(=O)N[C@@H](Cc4c[nH]cn4)C(=O)N[C@H](C)C(N)=O)(C3)NC(=O)[C@H](CC(N)=O)NC(=O)[C@H](Cc3ccccc3)NC(=O)[C@H](C)NC(=O)[C@H](C)NC(=O)[C@H](CC(=O)O)NC(=O)[C@H](CC(=O)O)NC1=O)NC(=O)[C@H](CC(C)(C)C)NC(=O)[C@H](CC(=O)O)NC2=O (some centres unmarked) [I-833] . Reported CHI Log D: 2.146

For this compound ( CC[C@H](C)[C@@H]1NC(=O)[C@H](CC(=O)O)NC(=O)[C@]2(CC=CCCCC3(CCCC=CCCCCCC[C@@](C)(C(=O)N[C@@H](Cc4ccccc4)C(=O)N[C@@H](Cc4csc5ccccc45)C(=O)N[C@@H](Cc4c[nH]cn4)C(N)=O)NC(=O)[C@H](CC(N)=O)NC(=O)[C@H](Cc4ccccc4)NC(=O)[C@H](C)NC(=O)[C@H](C)NC(=O)[C@H](CC(=O)O)NC(=O)[C@H](CC(=O)O)NC3=O)NC1=O)CCCN2C(C)=O (some centres unmarked) [I-470] ), measured CHI Log D is 2.394

----------
methodSummary: CHI Log D procedure
Format: physicochemical
conditionContext: pH 7.4, CHI Log D
Catalogue of chromatographic logD values

Reference set, count: 2
CCCC(=O)NCCCC[C@@H]1NC(=O)[C@H](C)NC(=O)[C@H](CC(=O)O)NC(=O)[C@H](CC(=O)O)NC(=O)C2(CCCC=CCCCOC(=O)N3CC[C@@](C(=O)N[C@@H](Cc4ccsc4)C(=O)N[C@@H](Cc4csc5ccccc45)C(=O)N[C@@H](CCC(N)=O)C(N)=O)(C3)NC(=O)[C@H](CC(N)=O)NC(=O)[C@H](Cc3ccccc3)NC1=O)CCCC=CC[C@]1(CCCN1C(C)=O)C(=O)N[C@@H](CC(=O)O)C(=O)N[C@@H](CC(C)(C)C)C(=O)N2 (stereo partly drawn); 1.65
CC(=O)N1CCC[C@]12CC=CCCCC1(CCCC=CCCCCCC[C@@](C)(C(=O)N[C@@H](Cc3ccccc3)C(=O)N[C@@H](Cc3cccc4ccc(F)cc34)C(=O)N[C@@H](CCC(N)=O)C(N)=O)NC(=O)[C@H](C(C)C)NC(=O)[C@H](Cc3ccccc3)NC(=O)[C@H](C)NC(=O)[C@H](C)NC(=O)[C@H](CC(=O)O)NC(=O)[C@H](CC(=O)O)NC1=O)NC(=O)[C@H](C)NC(=O)[C@H](CC(=O)O)NC2=O (stereo partly drawn); 2.17

Now turn to the next molecule.
# chromatographic logD of CC(=O)N1CCC[C@]12CC=CCCCC1(CCCC=CCCCOC(=O)N3CC[C@@](C(=O)N[C@@H](Cc4ccccc4Cl)C(=O)N[C@@H](Cc4csc5ccccc45)C(=O)N[C@@H](CO)C(N)=O)(C3)NC(=O)[C@H](CC(C)C)NC(=O)[C@H](Cc3ccccc3)NC(=O)[C@H](C)NC(=O)[C@H](C)NC(=O)[C@H](CC(=O)O)NC(=O)[C@H](CC(=O)O)NC1=O)NC(=O)[C@H](Cc1cccc3ccccc13)NC(=O)[C@H](CC(=O)O)NC2=O (stereo partly drawn) = 2.62

----------
systemTested: full-length beta-Catenin (Uniprot ID P35222) (Homo sapiens)
Construct: 10 nM full-length beta-Catenin (Uniprot ID P35222)
Sequence (P35222 whole entry): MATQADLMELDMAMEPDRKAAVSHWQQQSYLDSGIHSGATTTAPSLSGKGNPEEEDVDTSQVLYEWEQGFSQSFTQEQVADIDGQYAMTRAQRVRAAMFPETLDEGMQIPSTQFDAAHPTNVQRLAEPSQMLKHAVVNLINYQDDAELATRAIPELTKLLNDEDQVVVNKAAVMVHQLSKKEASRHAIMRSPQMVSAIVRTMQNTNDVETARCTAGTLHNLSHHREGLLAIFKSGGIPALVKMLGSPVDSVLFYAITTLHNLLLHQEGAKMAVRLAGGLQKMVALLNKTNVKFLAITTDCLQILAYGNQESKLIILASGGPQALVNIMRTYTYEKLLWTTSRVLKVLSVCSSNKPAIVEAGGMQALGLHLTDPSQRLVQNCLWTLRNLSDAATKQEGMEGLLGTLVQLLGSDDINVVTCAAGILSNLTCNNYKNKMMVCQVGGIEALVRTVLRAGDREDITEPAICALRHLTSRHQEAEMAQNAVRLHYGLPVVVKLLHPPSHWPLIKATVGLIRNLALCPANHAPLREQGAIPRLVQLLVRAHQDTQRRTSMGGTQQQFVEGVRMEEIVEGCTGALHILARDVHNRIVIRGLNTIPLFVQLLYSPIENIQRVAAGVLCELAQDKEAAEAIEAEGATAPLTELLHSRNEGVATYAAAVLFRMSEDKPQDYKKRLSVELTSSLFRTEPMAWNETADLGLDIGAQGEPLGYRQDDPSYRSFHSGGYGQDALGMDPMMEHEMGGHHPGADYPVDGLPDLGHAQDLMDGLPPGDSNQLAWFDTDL
methodSummary: Fluorescence polarization IC50 (beta-catenin / 5FAM-TCF4 10-53 competition)
Format: binding
conditionContext: Table E2-1; read-out: beta-Catenin FP IC50
pIC50 listing for selected molecules.
To interpret pIC50, take it as minus log10 of a concentration measured in moles per litre.

CC(=O)N1CCC[C@]12CC=CCCCC1(CCCC=CCCCCCC[C@@](C)(C(=O)N[C@@H](Cc3ccccc3)C(=O)N[C@@H](Cc3csc4ccccc34)C(=O)N[C@@H](CCC(N)=O)C(N)=O)NC(=O)[C@H](C)NC(=O)[C@H](Cc3cccc(C(F)(F)F)c3)NC(=O)[C@H](C)NC(=O)[C@H](C)NC(=O)[C@H](CC(=O)O)NC(=O)[C@H](CC(=O)O)NC1=O)NC(=O)[C@H](C)NC(=O)[C@H](CC(=O)O)NC2=O (some centres unmarked) [I-374]; 5.52

# pIC50 (molecule: CCN(CC(=O)O)C[C@@H]1NC(=O)[C@H](CC(=O)O)NC(=O)C2(CCCC=CCCCCCC[C@@](C)(C(=O)N[C@@H](Cc3ccccc3)C(=O)N[C@@H](Cc3c[nH]c4ccccc34)C(=O)N[C@@H](CCC(N)=O)C(N)=O)NC(=O)[C@H](C(C)C)NC(=O)[C@H](Cc3ccccc3)NC(=O)[C@H](C)NC(=O)[C@H](C)NC1=O)CCCC=CC[C@]1(CCCN1C(C)=O)C(=O)N[C@@H](CC(=O)O)C(=O)N[C@@H](C)C(=O)N2 (some centres unmarked) [I-173] ) is 5.51

----------
Measured chromatographic logD values are reported for all entries that follow.
methodSummary: CHI Log D procedure
Assay type: physicochemical
conditionContext: pH 7.4, CHI Log D
Respond using a number only.

Recorded results for 4 molecules are shown here.
CC(=O)N[C@@H](Cc1ccccc1)C(=O)N[C@@H](CC(=O)O)C(=O)N[C@@H](C)C(=O)N[C@]1(C)CCCCCCC=CCOC(=O)N2CC[C@@](C(=O)N[C@@H](Cc3ccccc3)C(=O)N[C@@H](Cc3c[nH]c4ccccc34)C(=O)N[C@@H](CCC(N)=O)C(N)=O)(C2)NC(=O)[C@H](C(C)C)NC(=O)[C@H](CC2CCCC2)NC(=O)[C@H](C)NC(=O)[C@H](C)NC(=O)[C@H](CC(=O)O)NC(=O)[C@H](CC(=O)O)NC1=O (single isomer, unassigned) [I-95]; 1.31
CC(=O)N1CCC[C@]12CC=CCCCC1(CCCC=CCCCOC(=O)N3CC[C@@](C(=O)N[C@@H](Cc4ccccc4Cl)C(=O)N[C@@H](Cc4csc5ccccc45)C(=O)N[C@@H](CCC(N)=O)C(N)=O)(C3)NC(=O)[C@H]([C@@H](C)O)NC(=O)[C@H](Cc3ccccc3)NC(=O)[C@H](C)NC(=O)[C@H](C)NC(=O)[C@H](CC(=O)O)NC(=O)[C@H](CC(=O)O)NC1=O)NC(=O)[C@H](CC1CCCCC1)NC(=O)[C@H](CC(=O)O)NC2=O (some centres unmarked) [I-1042]; 2.35
CC(=O)N1CCC[C@]12CC=CCCCC1(CCCC=CCCCOC(=O)N3CC[C@@](C(=O)N[C@@H](Cc4ccccc4Cl)C(=O)N[C@@H](Cc4csc5ccccc45)C(=O)N[C@@H](CO)C(N)=O)(C3)NC(=O)[C@H](CO)NC(=O)[C@H](Cc3ccccc3)NC(=O)[C@H](C)NC(=O)[C@H](C)NC(=O)[C@H](CC(=O)O)NC(=O)[C@H](CC(=O)O)NC1=O)NC(=O)[C@H](Cc1ccccc1)NC(=O)[C@H](CC(=O)O)NC2=O (some centres unmarked) [I-1051]; 2.23
CC(=O)N1CCC[C@]12CC=CCCCC1(CCCC=CCCCCCC[C@@](C)(C(=O)N[C@@H](Cc3ccccc3Br)C(=O)N[C@@H](Cc3csc4ccccc34)C(=O)N[C@@H](CCC(N)=O)C(N)=O)NC(=O)[C@H](CC(N)=O)NC(=O)[C@H](Cc3ccccc3)NC(=O)[C@H](C)NC(=O)[C@H](C)NC(=O)[C@H](CN(CC(=O)O)CC(F)(F)F)NC(=O)[C@H](CC(=O)O)NC1=O)NC(=O)[C@H](CC(C)(C)C)NC(=O)[C@H](CC(=O)O)NC2=O (some centres unmarked) [I-932]; 2.77

We next turn to a different molecule, shown below.
Lab note: CC[C@H](C)[C@@H]1NC(=O)[C@H](CC(=O)O)NC(=O)[C@]2(CC=CCCCC3(CCCC=CCCCCCC[C@@](C)(C(=O)N[C@@H](Cc4ccsc4)C(=O)N[C@@H](Cc4csc5ccccc45)C(=O)N[C@@H](Cc4c[nH]cn4)C(N)=O)NC(=O)[C@H](CC(N)=O)NC(=O)[C@H](Cc4ccccc4)NC(=O)[C@H](C)NC(=O)[C@H](C)NC(=O)[C@H](CN(CC(=O)O)CC(F)(F)F)NC(=O)[C@H](CC(=O)O)NC3=O)NC1=O)CCCN2C(C)=O (some centres unmarked) [I-702] gave chromatographic logD of 2.75
